- target: human calpain 9 (Homo sapiens)
- Construct: human calpain 9, residues 27-347, was over expressed in E. coli BL21 (DE3); hexa-histidine (N); made in house; host or cells: E. coli BL21 (DE3)
- Sequence (O14815 27-347): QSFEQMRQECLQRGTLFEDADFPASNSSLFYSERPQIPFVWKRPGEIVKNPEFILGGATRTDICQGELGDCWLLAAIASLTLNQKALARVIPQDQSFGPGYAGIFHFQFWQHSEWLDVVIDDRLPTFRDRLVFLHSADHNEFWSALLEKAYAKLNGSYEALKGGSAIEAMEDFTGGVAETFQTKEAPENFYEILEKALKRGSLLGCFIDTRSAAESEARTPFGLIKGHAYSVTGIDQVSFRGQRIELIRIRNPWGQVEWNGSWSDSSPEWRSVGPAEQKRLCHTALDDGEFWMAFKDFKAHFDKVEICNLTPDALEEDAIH
- measurement.notes: Calpain binding: crystal structure interaction distances, human calpain 9
- conditions.used: non-polar interactions with human calpain 9
assay.endpoint: Interaction Distances P1-Ser242 (Å)

1. NC(=O)C(=O)[C@H](Cc1ccccc1)NC(=O)c1nsnc1-c1ccccc1 [Compound 72] = 3.5
2. Cn1cc(C(=O)N[C@@H](Cc2ccccc2)C(=O)C(N)=O)c(-c2ccccc2)n1 [Compound 32] = 3.6
3. NC(=O)C(=O)[C@H](Cc1ccccc1)NC(=O)c1snnc1-c1ccccc1 [Compound 44] = 3.7
4. CCCC[C@H](NC(=O)c1oc(C)nc1-c1ccccc1)C(=O)C(N)=O [Compound 265] = 4.0
